# System: HOP-62
# EXPERIMENTAL_DETAILS: relative viability (nuclei count vs DMSO), 5 days (fraction); higher = more cells survive
# ASSAY_CONTEXT: first compound 8 µM
Rule: relative viability below 0.5 gives 1. Equal to or above 0.5 gives 0.

Examples with answers:
- COMPOUND: "Nc1cccc2c1CN(C1CCC(=O)NC1=O)C2=O (stereo not given) [Lenalidomide] + COc1cccc2cc(-c3nc([C@H]4CC[C@H](C(=O)O)CC4)n4ncnc(N)c34)[nH]c12 [OSI-027] (partner 0.5 µM)"
  EXPERIMENTAL_SYSTEM: "HOP-62"
  ASSIGNED_CATEGORY: 0
- COMPOUND: "Nc1cccc2c1CN(C1CCC(=O)NC1=O)C2=O (stereo not given) [Lenalidomide] + Cc1cc(Nc2cc(N3CCN(C)CC3)nc(Sc3ccc(NC(=O)C4CC4)cc3)n2)n[nH]1 [Tozasertib] (partner 0.1 µM)"
  EXPERIMENTAL_SYSTEM: "HOP-62"
  ASSIGNED_CATEGORY: 1
- COMPOUND: "Nc1cccc2c1CN(C1CCC(=O)NC1=O)C2=O (stereo not given) [Lenalidomide] + CS(=O)(=O)N1CCN(Cc2cc3nc(-c4cccc5[nH]ncc45)nc(N4CCOCC4)c3s2)CC1 [Pictilisib] (partner 1 µM)"
  EXPERIMENTAL_SYSTEM: "HOP-62"
  ASSIGNED_CATEGORY: 0
- COMPOUND: "Nc1cccc2c1CN(C1CCC(=O)NC1=O)C2=O (stereo not given) [Lenalidomide] + N=C(N)NC(=N)NCCc1ccccc1 [Phenformin] (partner 250 µM)"
  EXPERIMENTAL_SYSTEM: "HOP-62"
  ASSIGNED_CATEGORY: 0

Please look at the following compound next.
Incoming: Please determine if Nc1cccc2c1CN(C1CCC(=O)NC1=O)C2=O (stereo not given) [Lenalidomide] + C[C@@H](Oc1cc(-c2cnn(C3CCNCC3)c2)cnc1N)c1c(Cl)ccc(F)c1Cl [Crizotinib] (partner 1 µM) is below 0.5 in terms of relative viability.
Outgoing: 0

---

# System: ABC-1
# EXPERIMENTAL_DETAILS: relative viability (nuclei count vs DMSO), 5 days (fraction); higher = more cells survive
# ASSAY_CONTEXT: first compound 0.06325 µM
MEASURED_METRIC: relative viability
Enter a number only.

Reference set, count: 3
- MOLECULE: "CCNC(=O)c1noc(-c2cc(C(C)C)c(O)cc2O)c1-c1ccc(CN2CCOCC2)cc1 [Luminespib] + N=C(N)NC(=N)NCCc1ccccc1 [Phenformin] (partner 250 µM)"
  relative viability: 0.2
- MOLECULE: "CCNC(=O)c1noc(-c2cc(C(C)C)c(O)cc2O)c1-c1ccc(CN2CCOCC2)cc1 [Luminespib] + O=C(CCCCCCC(=O)Nc1ccccc1)NO [Vorinostat] (partner 1 µM)"
  relative viability: 0.269
- MOLECULE: "CCNC(=O)c1noc(-c2cc(C(C)C)c(O)cc2O)c1-c1ccc(CN2CCOCC2)cc1 [Luminespib] + CC(=O)c1c(C)c2cnc(Nc3ccc(N4CCNCC4)cn3)nc2n(C2CCCC2)c1=O [Palbociclib] (partner 0.5 µM)"
  relative viability: 0.286

Attention now shifts to the item below.
Incoming: I'd like to know its relative viability. The molecule in question is CCNC(=O)c1noc(-c2cc(C(C)C)c(O)cc2O)c1-c1ccc(CN2CCOCC2)cc1 [Luminespib] + COc1cccc2cc(-c3nc([C@H]4CC[C@H](C(=O)O)CC4)n4ncnc(N)c34)[nH]c12 [OSI-027] (partner 0.5 µM)
Outgoing: 0.195

Data credit: the supplement of paper PMC10307832
